- System: P. aeruginosa (IFO 3445)
- protocol: Minimum inhibitory concentration, standard method of the Japan Society of Chemotherapy
- Assay type: cell-based
- measurement-conditions: Pseudomonas aeruginosa, IFO3445
quantity-measured: MIC (µg/mL)

Record excerpt, results attached:
compound="CN[C@@H]1CN(c2c(F)c(N)c3c(=O)c(C(=O)O)cn(C4COC4)c3c2F)C[C@@H]1C (relative stereo) [Compound 94]" target_or_test_system="P. aeruginosa (IFO 3445)" units_symbol=µg/mL numeric_readout=1.56
compound="CCNCC1CCN(c2c(F)cc3c(=O)c(C(=O)O)cn(C4COC4)c3c2OC)C1 (centres unmarked) [Compound 79]" target_or_test_system="P. aeruginosa (IFO 3445)" units_symbol=µg/mL numeric_readout=25
compound="CO[C@@H]1CN(c2nc3c(cc2F)c(=O)c(C(=O)O)cn3C2COC2)C[C@H]1N (relative stereo) [Compound 88]" target_or_test_system="P. aeruginosa (IFO 3445)" units_symbol=µg/mL numeric_readout=3.13

I = O=C(O)c1cn(C2COC2)c2c(F)c(N3CCC(O)C3)c(F)cc2c1=O (centres unmarked) [Compound 16]
II = O=C(O)c1cn(C2COC2)c2c(F)c(N3Cc4ccccc4C3)c(F)cc2c1=O [Compound 9]
Pick one: I or II . Which one has the lower reported MIC? Answer with the label corresponding to your selection.
I

Origin of values: patent US5407932A
